- PROTOCOL TEXT: Cytotoxicity against african green monkey Vero cells after 3 days by MTT reduction assay
- Assay type: cell-based
- CONDITION INFO: chlorocebus sabaeus
METRIC: CC50 at 72 h (µg/mL)
One number for each entry, in µg/mL.

Entry under test: O=C(Oc1cc(O)c2c(c1)OC(c1cc(O)c(O)c(O)c1)CC2)c1cc(O)c(O)c(O)c1 (configuration not stated) . Its CC50 at 72 h was 120

---

- PROTOCOL TEXT: Cytotoxicity against human Hep2 cells after 3 days by MTT reduction assay
- Type: cell-based, HEp-2
METRIC: CC50 at 72 h (µg/mL)
One number for each entry, in µg/mL.

Input O=C(Oc1cc(O)c2c(c1)OC(c1cc(O)c(O)c(O)c1)CC2)c1cc(O)c(O)c(O)c1 (stereo unspecified) . Output CC50 at 72 h: 95
